Molecular target: Tryptophan--tRNA ligase (Mycobacterium tuberculosis (strain ATCC 25618 / H37Rv)) (UniProt P9WFT3)
Sequence (P9WFT3 whole entry): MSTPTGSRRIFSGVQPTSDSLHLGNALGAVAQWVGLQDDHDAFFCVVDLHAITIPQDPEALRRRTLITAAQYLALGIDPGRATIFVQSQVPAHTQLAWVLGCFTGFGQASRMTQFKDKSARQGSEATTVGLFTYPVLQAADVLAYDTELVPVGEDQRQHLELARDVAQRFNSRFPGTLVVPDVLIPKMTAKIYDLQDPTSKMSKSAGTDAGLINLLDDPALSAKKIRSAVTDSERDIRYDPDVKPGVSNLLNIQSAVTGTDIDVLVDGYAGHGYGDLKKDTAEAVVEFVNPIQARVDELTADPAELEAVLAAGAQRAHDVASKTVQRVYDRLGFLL
Assay: Biochemical assay for Mt-TrpRS
Type: functional
Design: scale not given: direction of the effect not stated beside the values
Conditions: 10 µM
The whole screen tested about 65,000 compounds, of which about 65 (0.1%) showed an effect of 50% or more. The sample holds strong results, similar compounds and a random draw of the others, so the mix is not that of the screen.
Reported Percent Effect by item:
Report as: number unit

The cases that follow already have their Percent Effect on record.
Cc1oncc1C(=O)N1C[C@H]2CCCC(N(C)Cc3cccs3)[C@H]2C1 (some centres undefined)
0.971%
Cc1ccc(CN(C)C(=O)CN2CCCC(Cn3cncn3)C2)cc1 (centres undefined)
11.8%
Cc1nn(C)c(C)c1C1COCCN1C(=O)c1ccc(Cl)o1 (centres undefined)
80.8%
Cn1cnnc1C1CCN(C(=O)CCCOc2ccccc2)CC1
-0.13%
CC(C)NC(=O)N(C)C(c1cccc(F)c1)c1ccccn1 (centres undefined)
-3.48%

Lab note: measured Percent Effect of CC(C)N(C)CC(=O)N(C)C(c1cccc(F)c1)c1ccccn1 (centres undefined) was 94.7%

get_value(item= CCCC(=O)N(C)C(c1cccc(F)c1)c1ccccn1 (centres undefined) , readout=Percent Effect) returns -2.61%

Record summary for CC(=O)N(C)C(c1cccc(F)c1)c1ccccn1 (centres undefined) : reported Percent Effect = 70.3%

Lookup result for c1ccc(NC[C@@H]2CCC[C@@H]3CN(Cc4cc[nH]n4)C[C@@H]32)nc1 ; measured Percent Effect: -8.1%

According to the records, this compound CN(Cc1ccccc1)C(=O)CN1CCCC(Cn2cncn2)C1 (centres undefined) displays Percent Effect of 5.08%

What the record says about CCS(=O)(=O)N1C[C@@H](OCc2ccccn2)[C@@H]2OCCC[C@@H]21 : Percent Effect is 4.01%

Memo: CC(C)(C)c1nc(CN2CCCC(Cn3cncn3)C2)cs1 (centres undefined) , reported Percent Effect: 3.52%

Query COCCN1CCC(NCc2cccc(F)c2)C1 (centres undefined) yields Percent Effect of -5.04%

Value of measured Percent Effect for the entry CC(C(=O)NCc1ccc(N2CCCCC2)nc1)S(C)(=O)=O (centres undefined) : -4.1%

* * *

Target: Tryptophan--tRNA ligase (Mycobacterium tuberculosis (strain ATCC 25618 / H37Rv))
Experiment: Biochemical assay for Mt-TrpRS
Format: functional
Design: scale not given: direction of the effect not stated beside the values
Conditions: 10 µM
The whole screen tested about 65,000 compounds, of which about 65 (0.1%) showed an effect of 50% or more. This excerpt belongs to a sample that is enriched for strong results.
Property label: Percent Effect (%)
The figure you give is taken to be in %; do not add the unit.

Known results for compounds:
c1cnc(N2CCO[C@H]3CN(Cc4ccsc4)C[C@H]32)nc1
-4.69
Cn1ccnc1CN1CCN2C[C@H](Oc3ccccc3)C[C@H]2C1
2.44
COc1ccccc1OCCc1nnc(NC(=O)C2CC23CCC3)s1 (stereo not given)
72.7
O=C(c1ccno1)N1CCN2C(=O)N(Cc3ccc(F)cc3)C[C@H]2C1
0.0753
CCCN1CCCC2(CCN(Cc3noc(C4CCCC4)n3)C2)C1=O (stereo not given)
7.84

Sample O=C(CC1CC1)N1CCC2(CC1)CN(Cc1cccnc1)C(=O)CO2 ; Percent Effect observed: -3.48

What the record says about Cn1cnnc1C1CCN(C(=O)c2cc3c(s2)CCCC3)CC1 : Percent Effect is 83.8

So for O=C(c1ccccn1)N1C[C@@H]2CC[C@H](C1)N(C(=O)CCN1CCCC1)C2 , the logged Percent Effect turned out to be 4.71

The recorded Percent Effect for O=C(CC1CC1)N1CCC2(CC1)C(=O)NCCN2Cc1ccccc1 is 54.2

So, N#Cc1cn[nH]c1NCc1cc(I)cc(I)c1O ? Its Percent Effect was 3.89

For this compound ( O=C(NC1CC1)N1CCC2(CC1)C(=O)NCCN2Cc1ccccc1 ), measured Percent Effect is -5.09

The compound CC(C)OCCCNC(=O)CS(=O)(=O)Cc1ccc(Cl)cc1 showed Percent Effect equal to 75.4

Sample Cc1cnn(CC2CCCN2Cc2nc(N)c3ccccc3n2)c1 (stereo not given) ; Percent Effect observed: 57.9

# compound CCc1nnc2n1CCN(Cc1csc(-c3ncccn3)n1)C2 ; its Percent Effect = 1.94

Lab note: measured Percent Effect of c1ccc(Cc2nnc(CN3CCCCC3Cn3cncn3)o2)cc1 (stereo not given) was -0.0684

Memo: COCCc1noc(CN(C)C2CCCN(c3ccc(C)nn3)C2)n1 (stereo not given) , reported Percent Effect: 0.711

// Percent Effect value for Cn1ccnc1C(=O)N1C[C@@H]2CCN(c3cnccn3)C[C@@H]2C1 : 2.7

* * *

Biological target: Tryptophan--tRNA ligase (Mycobacterium tuberculosis (strain ATCC 25618 / H37Rv))
Assay: Biochemical assay for Mt-TrpRS
Format: functional
Parameters: scale not given: direction of the effect not stated beside the values
Settings: 10 µM
Hit rate of the full screen: of about 65,000 compounds, about 65 (0.1%) showed an effect of 50% or more. The sample as a whole holds a higher share of strong results than the screen did.
Percent Effect listing for selected compounds.
// return numeric value only (unit: %, not printed)

Observe how each entry below is paired with its result.
CCc1nc(CN(C)C2CCCN(c3cccnn3)C2)no1 (stereo unspecified)
10.3
N#Cc1ccc(S(=O)(=O)NC(=O)C2CC(c3ccccc3)=NO2)cc1 (stereo unspecified)
0.0809

Looking up O=C(NS(=O)(=O)c1cccnc1)C1CC(c2ccccc2)=NO1 (stereo unspecified) , I see its Percent Effect listed as 54.1

Sure, the documented Percent Effect for Cc1ncoc1C(=O)N1C[C@H]2CCC[C@@]2(COCc2cccnc2)C1 is 1.59

GET /value?item= COc1cccc(S(=O)(=O)NC(=O)C2CC(c3ccccc3)=NO2)c1 (stereo unspecified) &field=Percent Effect returns 0.405

Reported Percent Effect for CN(CC(=O)Nc1ccncc1)C1CCCN(c2cccnn2)C1 (stereo unspecified) was -2.13

* * *

Molecular target: Tryptophan--tRNA ligase (Mycobacterium tuberculosis (strain ATCC 25618 / H37Rv)) (UniProt P9WFT3)
Experiment: Biochemical assay for Mt-TrpRS
Format: functional
Set-up: scale not given: direction of the effect not stated beside the values
Conditions: 10 µM
Out of some 65,000 compounds screened, about 65 (0.1%) showed an effect of 50% or more. This excerpt belongs to a sample that is enriched for strong results.
Entries and their Percent Effect
Field: numeric (%). Do not append units.

Noted for CN(C)C(=O)c1cncnc1-c1ccc(CNC(=O)C2CC2)cc1 : its Percent Effect reads 1.32

CN(C)C(=O)c1cncnc1-c1ccc(CNC(=O)C2CCCO2)cc1 (stereo unspecified) yielded Percent Effect of 59.1

Sample COCC(=O)NCc1ccc(-c2ncncc2C(=O)N(C)C)cc1 ; Percent Effect observed: -3.46

* * *

Target: Tryptophan--tRNA ligase (Mycobacterium tuberculosis (strain ATCC 25618 / H37Rv)) (UniProt P9WFT3)
Test: Biochemical assay for Mt-TrpRS
Format: functional
Parameters: scale not given: direction of the effect not stated beside the values
Details: 10 µM
In all, about 65,000 compounds went through this assay and about 65 (0.1%) showed an effect of 50% or more. What follows is part of a selection rich in strong results, with near analogues and random picks from the rest.
Item-by-item account of Percent Effect
Answer in %, number only, no unit symbol.

Use the examples below as a reference point.
CCNC(=O)[C@@H]1C[C@@H](N)CN1C(=O)c1cc2ccccc2[nH]1
2.18
COc1ccccc1C1(C(=O)NCCN2CCOCC2)CCOCC1
-0.235
CC(C)C(NC(=O)C1CC1)c1cc(O)nc(-c2cccnc2)n1 (stereo unspecified)
2.42
COc1ccc2nnc(CCC(=O)NCc3cccn3C)n2n1
1.87
Cc1ccccc1C1(C(=O)NCCN2CCCC2)CCOCC1
1.49

In the following, a different molecule is considered.
Kindly note the recorded Percent Effect for Cc1c[nH]c(CN2CC[C@@]3(O)CCN(C(=O)C4CCC4)C[C@H]3C2)n1 , which is 1.37

* * *

Quick reference: Percent Effect of the listed items.
Molecular target: Tryptophan--tRNA ligase (Mycobacterium tuberculosis (strain ATCC 25618 / H37Rv))
Test: Biochemical assay for Mt-TrpRS
Format: functional
Set-up: scale not given: direction of the effect not stated beside the values
Details: 10 µM
About 65 (0.1%) of roughly 65,000 compounds showed an effect of 50% or more. This is one part of a sample in which strong results are shown more often than they occur.
The figure you give is taken to be in %; do not add the unit.

Tested on Tryptophan--tRNA ligase (Mycobacterium tuberculosis (strain ATCC 25618 / H37Rv)), the item CN(Cc1ccco1)[C@@H]1CN(C(=O)c2ccnnc2)C[C@@H]2CCCO[C@@H]21 showed Percent Effect equal to 4.52

Form field Percent Effect for item O=C(N[C@@H]1CN(C2CCCC2)C[C@@H]2CCCO[C@@H]21)c1cnccn1 on Tryptophan--tRNA ligase (Mycobacterium tuberculosis (strain ATCC 25618 / H37Rv)): -1.79

Reported Percent Effect (Tryptophan--tRNA ligase (Mycobacterium tuberculosis (strain ATCC 25618 / H37Rv))) for entry Cc1nc(CN(Cc2cccs2)C2CCS(=O)(=O)C2)oc1C (configuration not stated) is 1.07

Percent Effect of O=S1(=O)CCC(N(Cc2nc(-c3ccccn3)no2)Cc2cccs2)C1 (configuration not stated) , assay on Tryptophan--tRNA ligase (Mycobacterium tuberculosis (strain ATCC 25618 / H37Rv)), is -6.38
